# Test system: male mice
# MEASUREMENT NOTES: extension of sleeping time of depressant drugs by synergists
# Type: in vivo, male mice (Swiss albino white)
# CONDITION SET: Secobarbital 37 mg/kg; synergist 110 mg/kg; treated/control
MEASURED METRIC: Relative Sleeping Time, Secobarbital
Number only, please.

# return recorded Relative Sleeping Time, Secobarbital for input C#CCOCc1ccccc1[N+](=O)[O-]
1.0

# return recorded Relative Sleeping Time, Secobarbital for input C#CCOCc1ccc([N+](=O)[O-])c(Cl)c1
1.1

# return recorded Relative Sleeping Time, Secobarbital for input C#CCOCc1c(Cl)cccc1[N+](=O)[O-]
2

# return recorded Relative Sleeping Time, Secobarbital for input CCOCCOCCOC(C)Oc1ccc2c(c1)OCO2 (stereo not drawn) [Sesoxane, reference compound]
8.3

# return recorded Relative Sleeping Time, Secobarbital for input C#CCn1nc(Cl)c2ccccc21
1.3
